Hello, the source for this data is patent US10513514B2, in case you need it.

Measured Target: PCSK9 (Homo sapiens (Human))
Run Description: In vitro screening experiment (AlphaLISA anti-PCSK9, PCSK9-Huh7 cells)
Setup Conditions: 20 h incubation, AlphaLISA reading
Would you kindly list IC50 for each of these compounds?

Field: example entries. Status: answers known.
Cc1cccnc1N(C(=O)c1ccc(C2=NOC(C)(C)C2=O)cc1F)[C@@H]1CCCNC1 [WX027] :: < 10 µM
Cc1cccnc1N(C(=O)c1ccc(C2=NOC(C)(C)C2O)cc1)[C@@H]1CCCNC1 (some centres unmarked) [WX025] :: < 10 µM
Cc1cc(C2=NOC(C)(C)C2=O)ccc1C(=O)N(c1ncccc1Cl)[C@@H]1CCCNC1 [WX021] :: < 10 µM
Cc1cccnc1N(C(=O)c1ccc(C2=NOC(C)(C)/C2=N\O)cc1)[C@@H]1CCCNC1 [WX039] :: < 10 µM

Challenge: Item COc1cccnc1N(C(=O)c1ccc(C2=NOC(C)(C)C2=O)cc1)[C@@H]1CCCNC1 [WX009] has what recorded IC50?
Response given: < 10 µM

----------
Run Description: Research of pharmacokinetic properties in SD rats (bioavailability)
Type: in vivo
Setup Conditions: male SD rats; 1 mg/kg intravenous injection, 5 mg/kg by gavage
Recorded Endpoint: F in rats (%)
Answers are plain numbers, in %.

Field: example entries. Status: answers known.
Cc1cccnc1N(C(=O)c1ccc(C2=NOC(C)(C)C2=O)cc1F)[C@@H]1CCCNC1 :: 58.8
Cc1cc(C2=NOC(C)(C)C2=O)ccc1C(=O)N(c1ncccc1Cl)[C@@H]1CCCNC1 :: 37.7
O=C(c1ccc(-n2nnc3cccnc32)cc1)N(c1ncccc1Cl)[C@@H]1CCCNC1 [PF-06446846, reference compound] :: 20

# per-item lookup of F in rats (%); items listed below
1. CC1(C)ON=C(c2ccc(C(=O)N(c3ncccc3Cl)[C@@H]3CCCNC3)cc2)C1=O
2. CO/N=C1/C(c2ccc(C(=O)N(c3ncccc3C)[C@@H]3CCCNC3)cc2)=NOC1(C)C
3. Cc1cccnc1N(C(=O)c1ccc(C2=NOC(C)(C)C2=O)cc1)[C@@H]1CCCNC1

Response given:
[83.9, 56.3, 68.0]
